Source listed as ChEMBL document CHEMBL1137417.

- Assay target: Heat shock protein HSP90 (Homo sapiens, UniProt P07900+P08238)
- Method description: Upregulation of Hsp70 in SKOV3 cells
- Assay type: functional, cell-based
- Assay setup: sk-ov-3
Readout name: EC50

>>> result("C=CCNc1c(O)cc2c(O)c1C[C@@H](C)C[C@H](OC)[C@H](O)[C@@H](C)/C=C(\\C)[C@H](OC(N)=O)[C@@H](OC)/C=C\\C=C(/C)C(=O)N2.Cl [RETASPIMYCIN HYDROCHLORIDE]")
"0.016 µM"
>>> result("CO[C@H]1/C=C\\C=C(/C)C(=O)NC2=CC(=O)C(NC[C@H](O)CO)=C(C[C@@H](C)C[C@H](OC)[C@H](O)[C@@H](C)/C=C(\\C)[C@@H]1OC(N)=O)C2=O")
"0.853 µM"
>>> result("CO[C@H]1/C=C\\C=C(/C)C(=O)Nc2cc(O)c(N)c(c2O)C[C@@H](C)C[C@H](OC)[C@H](O)[C@@H](C)/C=C(\\C)[C@@H]1OC(N)=O.Cl")
"0.01 µM"
>>> result("CO[C@H]1/C=C\\C=C(/C)C(=O)Nc2cc(O)c(NC[C@H](O)CO)c(c2O)C[C@@H](C)C[C@H](OC)[C@H](O)[C@@H](C)/C=C(\\C)[C@@H]1OC(N)=O.Cl")
"> 10 µM"
>>> result("C=CCN1C(=O)COc2cc3c(O)c(c21)C[C@@H](C)C[C@H](OC)[C@H](O)[C@@H](C)/C=C(\\C)[C@H](OC(N)=O)[C@@H](OC)/C=C\\C=C(/C)C(=O)N3")
"1.005 µM"
